Data provenance is PubChem BioAssay.

# Assay overview: endothelial E-selectin expression blockers – imaging, HUVEC, immunofluorescence, MLSMR starter and 10KST1 sets, primary screen (AID 487);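 on nuclei count: 100% = median nuclei count of all wells on the same plate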
# Test conditions: HUVEC TNFalpha-induced E-selectin immunofluorescence imaging, at 2 µM; measured here: cell number, toxicity
Reported nuclei count values for a set of molecules
Your answer should be a plain number; it is taken to be in %.

Use the examples below as a reference point.
molecule=COc1cccc(NC(=O)C2CCN(c3ncccn3)CC2)c1 property_measured="nuclei count" unit_symbol=% test_value=129
molecule=O=C(c1cccnc1)N1CCN(C(=O)c2ccccc2F)CC1 property_measured="nuclei count" unit_symbol=% test_value=114
molecule="CCC1Cc2c(nc3c4c(nc(N5CCOCC5)c(C#N)c24)NC(C)=N3)O1 (stereo unspecified)" property_measured="nuclei count" unit_symbol=% test_value=97.4
molecule=CC(=O)Nc1ccc(S(=O)(=O)N(CC(=O)O)Cc2ccccc2)cc1 property_measured="nuclei count" unit_symbol=% test_value=130
molecule=Cc1cccc2c1N(CC(=O)OC(C)C)C(=O)C2=O property_measured="nuclei count" unit_symbol=% test_value=121
molecule=CCc1cc2c(=O)c(-c3nc4ccccc4[nH]3)coc2c(CN2CCC(C)CC2)c1O property_measured="nuclei count" unit_symbol=% test_value=107
molecule=O=c1c2cnn(-c3ccccc3)c2ncn1/N=C/c1ccncc1 property_measured="nuclei count" unit_symbol=% test_value=108
molecule=Cc1cc(C(=O)Nc2sc3c(c2C#N)CCCCC3)cs1 property_measured="nuclei count" unit_symbol=% test_value=100
molecule=CC(=O)c1ccc(Oc2cc(C)nc(-n3nc(C)cc3C)n2)cc1 property_measured="nuclei count" unit_symbol=% test_value=102
molecule=CN(C)c1ccc(C(=O)OCC(=O)NC2CCCCC2)cc1 property_measured="nuclei count" unit_symbol=% test_value=110

Now for another entry.
Query block: Return value of nuclei count for input Cc1ccc(OCC2Cn3c(nc4c3c(=O)n(C)c(=O)n4C)O2)cc1 (stereo unspecified) , no commentary.
Result block: 120

---

Reported inhibition values for a set of molecules
# Assay overview: inhibitors of TNFa-induced NFkB p65 translocation, primary screen, imaging, HUVEC, MLSMR starter and 10KST1 sets (AID 438);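 further: compound added about 3h40 before a 20 min TNFalpha stimulation; signal is the nuclear over cytoplasmic p65 intensity ratio per well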
# Test conditions: HUVEC TNFa-induced p65 nuclear translocation; at 2 µM, stronger effect = higher value, 0% TNFa-plus-vehicle, 100% no-TNFa wells
Your answer should be a plain number; it is taken to be in %.

Query block: Return value of inhibition for input `CS(=O)(=O)N(CC(=O)O)c1cccc(Cl)c1` , no commentary.
Result block: 9.8

Query block: Return value of inhibition for input Cc1nc2sc(C(c3cccc(F)c3)N3CCC(C)CC3)c(O)n2n1 (stereo unspecified) , no commentary.
Result block: -5.4

Query block: Return value of inhibition for input `O=C(O)c1ccc(NC(=O)c2cccs2)cc1` , no commentary.
Result block: 1.2

Query block: Return value of inhibition for input O=C(c1cnn2c(C(F)F)cc(-c3ccccc3)nc12)N1CCN2CCCC2C1 (stereo unspecified) , no commentary.
Result block: -3.7

Query block: Return value of inhibition for input `Cc1ccc(C)c(N2CCN(CCCNC(=O)Cn3cc4c(n3)CCCCC4)CC2)c1` , no commentary.
Result block: -4.3

Query block: Return value of inhibition for input `CCC(=O)N1CCc2cc(S(=O)(=O)CCC(=O)Nc3ccc(C)c(F)c3)ccc21` , no commentary.
Result block: 2.7

---

# Assay overview: reduction of polyQ htt aggregates in cells – imaging, exon1htt(103Q)mCFP cells, high-content imaging, primary screen (AID 483);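 further: compound exposure lasted 3 days before fixation; percent of the per-plate median nuclei count of sample wells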
# Test conditions: exon1htt(103Q)mCFP cell line, aggregate imaging, at 2 µM; measured here: cell count, toxicity
Reported nuclei count values for a set of compounds
Your answer should be a plain number; it is taken to be in %.

compound=COc1cc(OC)cc(C(=O)NCCN2CCOCC2)c1 unit_symbol=% test_value=94.3
compound="O=C1CC(N2CCOCC2)C(=O)N1c1ccc2c(c1)OCO2 (stereo unspecified)" unit_symbol=% test_value=105
compound=O=C(Nc1nnc(C2CCCCC2)s1)c1cccs1 unit_symbol=% test_value=108
compound="CCc1ccc2[nH]c(=O)c(C(c3nnnn3CC3CCCO3)N3CCN4CCCC4C3)cc2c1 (stereo unspecified)" unit_symbol=% test_value=107
compound=CCOC(=O)C1=C(c2ccccc2)N2CCS(=O)(=O)N=C2S1 unit_symbol=% test_value=105

Query block: Return value of nuclei count for input `COc1ccc(S(=O)(=O)Nc2ccc(S(=O)(=O)N3CCCCC3)cc2)cc1OC` , no commentary.
Result block: 110

Query block: Return value of nuclei count for input `Cc1cnc(NC(=O)CSc2nnc(-c3ccccc3)n2Cc2ccccc2)s1` , no commentary.
Result block: 102

---

Reported inhibition values for a set of molecules
# Assay overview: endothelial E-selectin expression blockers – imaging, HUVEC, immunofluorescence, MLSMR starter and 10KST1 sets, primary screen (AID 487);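 on inhibition: signal is fraction of cell area covered by stained E-selectin grains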
# Test conditions: HUVEC TNFalpha-induced E-selectin immunofluorescence imaging, at 2 µM; stronger effect = higher value
Your answer should be a plain number; it is taken to be in %.

Use the examples below as a reference point.
molecule="CC(Oc1ccc(Br)cc1)C(=O)N1CCc2ccccc21 (configuration not stated)" test_value=-97.2
molecule="O=C(OCCN=C1NS(=O)(=O)c2ccccc21)C1CC(=O)N(c2ccc(Cl)cc2)C1 (configuration not stated)" test_value=-44.7
molecule=Cc1cc(C)n(CC(=O)NC2CCCCC2)n1 test_value=-225

Query block: Return value of inhibition for input `N#CCc1ccc(NC(=O)Nc2cccc(Cl)c2)cc1` , no commentary.
Result block: -112

Query block: Return value of inhibition for input `CC(C)CC(=O)N1CCN(S(=O)(=O)c2ccc(F)cc2)CC1` , no commentary.
Result block: 34.7

Query block: Return value of inhibition for input `O=C(CSc1nc(C2CCCCC2)n(-c2ccccc2)n1)NCCN1C(=O)CSC1=O` , no commentary.
Result block: -13.3

Query block: Return value of inhibition for input `CCCN1CCN(CCCNC(=O)Cn2nc(-c3ccc(Cl)cc3)ccc2=O)CC1` , no commentary.
Result block: -205

Query block: Return value of inhibition for input CC1(C)NC(=O)N(CC(O)CN(Cc2ccccc2)Cc2ccccc2)C1=O (configuration not stated) , no commentary.
Result block: -13

Query block: Return value of inhibition for input Cc1ccc(C)c(N2CCN(CCCNC(=O)Cn3cc4c(n3)CCC(C)C4)CC2)c1 (configuration not stated) , no commentary.
Result block: 29.9

Query block: Return value of inhibition for input `Cc1ccc(-c2nn[nH]n2)cc1` , no commentary.
Result block: -4.4

Query block: Return value of inhibition for input CCN1CCN(CCNC(=O)c2cn(C(C)c3ccccc3F)nn2)CC1 (configuration not stated) , no commentary.
Result block: -32.9

Query block: Return value of inhibition for input CCOC(=O)c1ccccc1NC1CC(=O)N(c2ccccc2C)C1=O (configuration not stated) , no commentary.
Result block: 8.6

Query block: Return value of inhibition for input `CCOC(=O)c1c(C)oc2ccc(NS(=O)(=O)c3ccc4c5c(cccc35)C(=O)N4)cc12` , no commentary.
Result block: -185

---

# Assay overview: inhibitors of TNFa-induced NFkB p65 translocation, primary screen, imaging, HUVEC, MLSMR starter and 10KST1 sets (AID 438);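 further: compound added about 3h40 before a 20 min TNFalpha stimulation; signal is the nuclear over cytoplasmic p65 intensity ratio per well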
# Test conditions: HUVEC TNFa-induced p65 nuclear translocation; at 2 µM, stronger effect = higher value, 0% TNFa-plus-vehicle, 100% no-TNFa wells
Property measured: inhibition (%)
Your answer should be a plain number; it is taken to be in %.

Use the examples below as a reference point.
compound="CCOc1ccc(NC2c3ccccc3C(=O)N2Cc2ccco2)cc1 (configuration not stated)" test_value=-6.7
compound=COc1ccccc1NS(=O)(=O)c1ccc(OC)c(OC)c1 test_value=5.5
compound=Cc1ccc(-n2c(C)cc3c2CCCC3=O)cc1 test_value=2.4
compound=CCOC(=O)CSc1nnc(CNC(=O)c2ccc(S(=O)(=O)N3CCCC3)cc2)n1C test_value=1.2
compound="CCOC(=O)N1CCC(NC(=O)CCC(=O)N2CC(C)Oc3ccc(Cl)cc32)CC1 (configuration not stated)" test_value=12.5

Now for another entry.
Query block: Return value of inhibition for input `COCCSc1nnc(NC(=O)CSCc2ccccc2)s1` , no commentary.
Result block: -14.6

---

# Assay overview: endothelial E-selectin expression blockers – imaging, HUVEC, immunofluorescence, MLSMR starter and 10KST1 sets, primary screen (AID 487);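 on inhibition: signal is fraction of cell area covered by stained E-selectin grains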
# Test conditions: HUVEC TNFalpha-induced E-selectin immunofluorescence imaging, at 2 µM; stronger effect = higher value
Property measured: inhibition (%)
Your answer should be a plain number; it is taken to be in %.

compound="COCCNC(=O)C(c1ccc(C)o1)N(Cc1cccs1)C(=O)c1snc(C(N)=O)c1N (stereo unspecified)" test_value=-93.7
compound=O=C(Nc1ccc2oc(=O)ccc2c1)c1cccnc1 test_value=1.2
compound=COc1ccc(CCNC(=O)CSc2nnnn2-c2ccccc2OC)cc1OC test_value=-10.8
compound=CCOc1ccccc1C(=O)Nn1c(C2CCC2)nc2ccccc2c1=O test_value=-38.2
compound="CC12CN3CC(C)(CN(C1)C3c1ccc(Br)cc1)C2 (stereo unspecified)" test_value=-50.4

Now for another entry.
Query block: Return value of inhibition for input `CC1(C)CC(=O)C=C(NCCN2CCN(C(=O)Nc3ccccc3)CC2)C1` , no commentary.
Result block: -2.1
